The entries below come with measured concentration at 4 h values attached.
# Run Description: Drug level in plasma of Sprague-Dawley rat at 10 mg/kg, po administered as single dose via gavage measured at 4 hrs by LC-MS/MS analysis
# Format: ADME, organism-based
Record the value in µM, omitting the unit from your answer.

Some molecules with known concentration at 4 h results, for comparison:
{"Molecule": "Nc1ccc(C(=O)N[C@H]2CC/C(=C\\c3cccc(Oc4ccc(C(F)(F)F)cn4)c3)CC2)cn1 (centres undefined)", "Observed": 8.6}
{"Molecule": "Nc1ncc(C(=O)N[C@H]2CC/C(=C\\c3cccc(Oc4ccc(C(F)(F)F)cn4)c3)CC2)cn1 (centres undefined)", "Observed": 7.8}
{"Molecule": "O=C(N[C@H]1CC/C(=C\\c2cccc(Oc3ccc(C(F)(F)F)cn3)c2)CC1)c1cccnc1 (centres undefined)", "Observed": 3.3}

Now for the molecule whose concentration at 4 h we want.
[Q] Read off the recorded concentration at 4 h for Cc1cc(C(=O)N[C@H]2CC/C(=C\c3cccc(Oc4ccc(C(F)(F)F)cn4)c3)CC2)cnc1N (centres undefined)
[A] 4.8

====

The entries below come with measured AUC(0-t) at 48 h values attached.
# Run Description: AUC (0 to 48 hrs) in brain of Sprague-Dawley rat at 10 mg/kg, po administered as single dose via gavage by LC-MS/MS analysis
# Assay type: ADME, organism-based
# Set-up: dose 10 mg/kg, time < 48 hr, route oral
Record the value in µM·h, omitting the unit from your answer.

Some compounds with known AUC(0-t) at 48 h results, for comparison:
{"Compound": "Nc1ncc(C(=O)N[C@H]2CC/C(=C\\c3cccc(Oc4ccc(C(F)(F)F)cn4)c3)CC2)cn1 (centres undefined)", "AUC(0-t) at 48 h [µM·h]": 192}
{"Compound": "Cc1cc(C(=O)N[C@H]2CC/C(=C\\c3cccc(Oc4ccc(C(F)(F)F)cn4)c3)CC2)cnc1N (centres undefined)", "AUC(0-t) at 48 h [µM·h]": 80.1}
{"Compound": "Nc1ccc(C(=O)N[C@H]2CC/C(=C\\c3cccc(Oc4ccc(C(F)(F)F)cn4)c3)CC2)cn1 (centres undefined)", "AUC(0-t) at 48 h [µM·h]": 135}

[Q] Read off the recorded AUC(0-t) at 48 h for O=C(N[C@H]1CC/C(=C\c2cccc(Oc3ccc(C(F)(F)F)cn3)c2)CC1)c1cccnc1 (centres undefined)
[A] 84

====

# Run Description: Intrinsic metabolic stability in rat liver microsomes assessed as metabolic turnover over per mg protein at 1 uM preincubated for 5 mins followed by NADPH cofactor addition and measured after 30 mins by LC-MS/MS analysis
# Type: ADME, Microsome
# Settings: 0.5 h
The entries below come with measured Drug metabolism values attached.

{"Compound": "O=C(N[C@H]1CC/C(=C\\c2cccc(Oc3ccc(C(F)(F)F)cn3)c2)CC1)c1cccnc1 (stereo unspecified)", "Drug metabolism": "< 0.04 nmol/min/mg"}
{"Compound": "Nc1ncc(C(=O)NC2CCC(=Cc3cccc(Oc4ccc(C(F)(F)F)cn4)c3)CC2)cn1 (racemic)", "Drug metabolism": "0.02 nmol/min/mg"}
{"Compound": "Nc1ccc(C(=O)NC2CCC(=Cc3cccc(Oc4ccc(C(F)(F)F)cn4)c3)CC2)cn1 (racemic)", "Drug metabolism": "0.05 nmol/min/mg"}

[Q] Read off the recorded Drug metabolism for O=C(NC1CCC(=Cc2cccc(Oc3ccc(C(F)(F)F)cn3)c2)CC1)c1ccc(-n2cccn2)nc1 (racemic)
[A] 0.09 nmol/min/mg

[Q] Read off the recorded Drug metabolism for Cc1cc(C(=O)NC2CCC(=Cc3cccc(Oc4ccc(C(F)(F)F)cn4)c3)CC2)cnc1N (racemic)
[A] 0.04 nmol/min/mg

[Q] Read off the recorded Drug metabolism for O=C(NC1CCC(=Cc2cccc(Oc3ccc(C(F)(F)F)cn3)c2)CC1)c1ccc(-n2nccn2)nc1 (racemic)
[A] 0.04 nmol/min/mg

====

# Run Description: Drug level in liver of Sprague-Dawley rat at 10 mg/kg, po administered as single dose via gavage measured at 8 hrs by LC-MS/MS analysis
# Assay type: ADME, organism-based
# Settings: read-out: Drug uptake
Readout Type: concentration at 8 h (µM)
Record the value in µM, omitting the unit from your answer.

Some molecules with known concentration at 8 h results, for comparison:
{"Molecule": "O=C(N[C@H]1CC/C(=C\\c2cccc(Oc3ccc(C(F)(F)F)cn3)c2)CC1)c1cccnc1 (centres undefined)", "Readout Type": "concentration at 8 h", "Units": "µM", "Observed": 32}
{"Molecule": "Cc1cc(C(=O)N[C@H]2CC/C(=C\\c3cccc(Oc4ccc(C(F)(F)F)cn4)c3)CC2)cnc1N (centres undefined)", "Readout Type": "concentration at 8 h", "Units": "µM", "Observed": 37}
{"Molecule": "Nc1ncc(C(=O)N[C@H]2CC/C(=C\\c3cccc(Oc4ccc(C(F)(F)F)cn4)c3)CC2)cn1 (centres undefined)", "Readout Type": "concentration at 8 h", "Units": "µM", "Observed": 34}

Now for the molecule whose concentration at 8 h we want.
[Q] Read off the recorded concentration at 8 h for Nc1ccc(C(=O)N[C@H]2CC/C(=C\c3cccc(Oc4ccc(C(F)(F)F)cn4)c3)CC2)cn1 (centres undefined)
[A] 74.9

====

The entries below come with measured AUC(0-t) at 48 h values attached.
# Run Description: AUC (0 to 48 hrs) in plasma of Sprague-Dawley rat at 10 mg/kg, po administered as single dose via gavage by LC-MS/MS analysis
# Assay type: ADME, organism-based
# Design: time < 48 hr, dose 10 mg/kg, route oral
Write the numeric value and append its unit.

Some compounds with known AUC(0-t) at 48 h results, for comparison:
{"Compound": "Nc1ncc(C(=O)N[C@H]2CC/C(=C\\c3cccc(Oc4ccc(C(F)(F)F)cn4)c3)CC2)cn1 (stereo not given)", "AUC(0-t) at 48 h": "237 µM·h"}
{"Compound": "Cc1cc(C(=O)N[C@H]2CC/C(=C\\c3cccc(Oc4ccc(C(F)(F)F)cn4)c3)CC2)cnc1N (stereo not given)", "AUC(0-t) at 48 h": "166 µM·h"}

[Q] Read off the recorded AUC(0-t) at 48 h for O=C(N[C@H]1CC/C(=C\c2cccc(Oc3ccc(C(F)(F)F)cn3)c2)CC1)c1cccnc1 (stereo not given)
[A] 55 µM·h

[Q] Read off the recorded AUC(0-t) at 48 h for O=C(NC1CCC(=Cc2cccc(Oc3ccc(C(F)(F)F)cn3)c2)CC1)c1ccc(-n2cccn2)nc1 (racemic)
[A] 0.9 µM·h

[Q] Read off the recorded AUC(0-t) at 48 h for Nc1ccc(C(=O)N[C@H]2CC/C(=C\c3cccc(Oc4ccc(C(F)(F)F)cn4)c3)CC2)cn1 (stereo not given)
[A] 212 µM·h

====

# Run Description: AUC (0 to 48 hrs) in Sprague-Dawley rat at 3 mg/kg, po administered as single dose via gavage by LC-MS/MS analysis
# Assay type: ADME, organism-based
# Design: dose 3 mg/kg, time < 48 hr, route oral
# Settings: in vivo
Readout Type: AUC(0-t) at 48 h (µM·h)
Record the value in µM·h, omitting the unit from your answer.

[Q] Read off the recorded AUC(0-t) at 48 h for O=C(NC1CCC(=Cc2cccc(Oc3ccc(C(F)(F)F)cn3)c2)CC1)c1cnc2[nH]ccc2c1 (racemic)
[A] 3

====

# Run Description: Clearance in Sprague-Dawley rat at 1 mg/kg, iv administered as single dose by LC-MS/MS analysis
# Assay type: ADME, organism-based
# Settings: in vivo
The entries below come with measured clearance values attached.
Record the value in mL/min/kg, omitting the unit from your answer.

{"Molecule": "O=C(NC1CCC(=Cc2cccc(Oc3ccc(C(F)(F)F)cn3)c2)CC1)c1cnc2[nH]ccc2c1 (racemic)", "clearance / mL/min/kg": 2.2}

[Q] Read off the recorded clearance for O=C(NC1CCC(=Cc2cccc(Oc3ccc(C(F)(F)F)cn3)c2)CC1)c1ccc(-n2cccn2)nc1 (racemic)
[A] 2.4

====

The entries below come with measured IC50 values attached.
# Subject Of Test: Cytochrome P450 3A4 (Homo sapiens, UniProt P08684)
# Sequence (P08684 whole entry): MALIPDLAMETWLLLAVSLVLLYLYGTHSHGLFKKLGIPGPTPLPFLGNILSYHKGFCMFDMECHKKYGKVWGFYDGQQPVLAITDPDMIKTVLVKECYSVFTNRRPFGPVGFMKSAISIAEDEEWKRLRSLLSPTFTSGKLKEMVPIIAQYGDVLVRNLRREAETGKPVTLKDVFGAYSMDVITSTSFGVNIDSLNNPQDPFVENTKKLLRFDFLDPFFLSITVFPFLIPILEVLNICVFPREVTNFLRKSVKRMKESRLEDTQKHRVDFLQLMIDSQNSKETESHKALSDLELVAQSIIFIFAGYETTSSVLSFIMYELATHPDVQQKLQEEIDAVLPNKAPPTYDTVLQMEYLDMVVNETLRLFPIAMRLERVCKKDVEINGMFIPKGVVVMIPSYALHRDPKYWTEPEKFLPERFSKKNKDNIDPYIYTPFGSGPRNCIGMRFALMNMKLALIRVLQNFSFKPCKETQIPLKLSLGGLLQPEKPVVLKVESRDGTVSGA
# Run Description: Inhibition of CYP3A4 in human liver microsomes using midazolam as substrate preincubated for 5 mins followed by NADPH cofactor addition and measured after 10 mins by LC-MS/MS analysis
# Assay type: ADME

Some compounds with known IC50 results, for comparison:
{"Compound": "O=C(N[C@H]1CC/C(=C\\c2cccc(Oc3ccc(C(F)(F)F)cn3)c2)CC1)c1cccnc1 (centres undefined)", "IC50": "2.4 µM"}
{"Compound": "Nc1ccc(C(=O)N[C@H]2CC/C(=C\\c3cccc(Oc4ccc(C(F)(F)F)cn4)c3)CC2)cn1 (centres undefined)", "IC50": "> 12.5 µM"}
{"Compound": "Nc1ncc(C(=O)N[C@H]2CC/C(=C\\c3cccc(Oc4ccc(C(F)(F)F)cn4)c3)CC2)cn1 (centres undefined)", "IC50": "> 12.5 µM"}

[Q] Read off the recorded IC50 for Cc1cc(C(=O)N[C@H]2CC/C(=C\c3cccc(Oc4ccc(C(F)(F)F)cn4)c3)CC2)cnc1N (centres undefined)
[A] > 12.5 µM
